- System: Trypanosoma cruzi
- assay.details: Antitrypanosomal activity against bloodstream forms of Trypanosoma cruzi by in vitro assay
- Assay type: functional
observation.type: MLC (mg/L)
Numeric only. Scale: mg/L

Prompt: # lookup: MLC of O=[N+]([O-])c1ccc(/C=N/Nc2cc(Cl)nc3c(Cl)cnn23)o1
Response: 10

Prompt: Try the compound Cc1nc(N/N=C/c2ccc([N+](=O)[O-])o2)n2nc(-c3ccccc3)cc2n1
Response: 3.2

Prompt: Same lookup for Cc1cc(N/N=C/c2ccc([N+](=O)[O-])o2)n2ncc(-c3ccc(Cl)cc3)c2n1 , please.
Response: 3.2

Prompt: Also, O=[N+]([O-])c1ccc(/C=N/Nc2ccnc3ccnn23)o1 please.
Response: 10

Prompt: Similarly, CCOC(=O)c1cnn2c(N/N=C/c3ccc([N+](=O)[O-])o3)cc(C)nc12 ?
Response: 10

Prompt: Quick one: Cc1cc(N/N=C/c2ccc([N+](=O)[O-])o2)n2ncc(S(=O)(=O)O)c2n1
Response: 100

Prompt: Field entry: O=[N+]([O-])c1ccc(/C=N/Nc2cc(Cl)nc3ccnn23)o1
Response: 1

Prompt: Check O=[N+]([O-])c1ccc(/C=N/Nc2cc(Cl)nc3nccn23)o1 too.
Response: 100

Prompt: Next up: Cc1cc(N/N=C/c2ccc([N+](=O)[O-])o2)n2ncc(-c3ccccc3)c2n1
Response: 1

Prompt: Then this compound: Cc1cc(N/N=C/c2ccc([N+](=O)[O-])o2)n2nccc2n1
Response: 10
